# tested on: T1, biotinylated recombinant human IL-12Rβ2 (produced in-house) (human, UniProt Q99665 24-622, randomly biotinylated)
# T1 construct: also called hIL-12RB2; human IL-12RB2
# T1 sequence: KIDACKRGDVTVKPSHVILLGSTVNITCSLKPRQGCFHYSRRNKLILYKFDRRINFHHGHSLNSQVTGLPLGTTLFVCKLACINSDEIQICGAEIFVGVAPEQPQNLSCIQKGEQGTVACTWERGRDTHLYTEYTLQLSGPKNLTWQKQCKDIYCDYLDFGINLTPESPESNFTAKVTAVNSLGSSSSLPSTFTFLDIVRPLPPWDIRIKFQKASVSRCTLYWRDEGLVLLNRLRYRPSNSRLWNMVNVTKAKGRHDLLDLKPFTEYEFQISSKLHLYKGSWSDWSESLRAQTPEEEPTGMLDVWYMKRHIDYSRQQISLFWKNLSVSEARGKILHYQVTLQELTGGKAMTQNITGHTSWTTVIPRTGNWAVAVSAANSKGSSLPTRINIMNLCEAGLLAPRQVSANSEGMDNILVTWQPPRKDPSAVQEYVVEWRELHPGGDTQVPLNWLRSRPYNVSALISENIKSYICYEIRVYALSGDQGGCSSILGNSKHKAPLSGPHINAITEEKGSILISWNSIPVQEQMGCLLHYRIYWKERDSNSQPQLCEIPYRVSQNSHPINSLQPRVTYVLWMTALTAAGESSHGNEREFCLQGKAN
# method summary: ELISA, periplasmic extract on biotinylated human IL-12Rβ2; control streptavidin-coated blocked wells
measured endpoint: ELISA binding hIL-12RB2/control

Measured ELISA binding hIL-12RB2/control, anti-IL-12Rβ2 VHH clone 2CAM18 (VHH, Tested as periplasmic extract; CDR3 group 45; also called 20475) VHH: QVQLQESGGGLVQVGDSLKLSCVASGTTFSTHVMAWYRQAPGKQREWVASIDSAGTTNYKDAVKGRFTISRDNVKRTVYLQMNNLKPEDSAVYLCSIPSRNAWGQGTQVTVSS : 1.51 ratio to control

Measured ELISA binding hIL-12RB2/control, anti-IL-12Rβ2 VHH clone 2CRMS29 (VHH, Tested as periplasmic extract; CDR3 group 52; also called 20521) VHH: QVQLQESGGGLVQAGGPLRLSCAASGRTFSGSAMGWFRQAPGKEREFVAAITWVGGFTYYADSVKGRFTISRDNAKNTVYLQMNNLSPEDTAVYSCAAQAYHKSGYYYPPLYDYWGQGTQVTVSS : 1.05 ratio to control

Measured ELISA binding hIL-12RB2/control, anti-IL-12Rβ2 VHH clone 2CAM88 (VHH, Tested as periplasmic extract; CDR3 group 17) VHH: QVQLQESGGGLVPPGDSLRLSCAASGRTFSSYTMGWFRQAPGKEREFVARISQDGGSTYYADSMKGRFTVARDNAKNTVYLQMNSLKPEDTAVYYCAADMIKWGLRVGVDSFKYWGQGTQVTVSS : 0.998 ratio to control

Measured ELISA binding hIL-12RB2/control, anti-IL-12Rβ2 VHH clone 2CAM12 (VHH, Tested as periplasmic extract; CDR3 group 19) VHH: QVQLQESGGGLVQAGGSLRLSCAASGRTFSWYRMGWFRQAPGKEREFVAGWYGVLTQYRDSVKGRFTISRDDAKNTVYLQMNSLKPEDTAVYYCAASLGGNYRSYEYDYWGQGTQVTVSS : 0.9 ratio to control
